# SYSTEM_NAME: IP receptor (Homo sapiens, UniProt P43119)
# Sequence (P43119 whole entry): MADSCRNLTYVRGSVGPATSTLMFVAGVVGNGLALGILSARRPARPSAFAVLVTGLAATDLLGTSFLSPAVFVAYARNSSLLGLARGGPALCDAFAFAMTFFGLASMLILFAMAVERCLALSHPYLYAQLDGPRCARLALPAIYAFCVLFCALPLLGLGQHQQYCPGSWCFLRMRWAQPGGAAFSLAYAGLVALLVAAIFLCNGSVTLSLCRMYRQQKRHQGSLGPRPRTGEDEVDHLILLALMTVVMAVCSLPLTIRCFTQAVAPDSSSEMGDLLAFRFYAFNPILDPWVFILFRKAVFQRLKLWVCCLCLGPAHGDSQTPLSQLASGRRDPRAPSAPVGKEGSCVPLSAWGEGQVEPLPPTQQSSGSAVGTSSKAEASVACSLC
# ASSAY_COMMENT: cAMP accumulation in CHO cells stably expressing the IP receptor (CHO-IP), Perkin Elmer AlphaScreen assay
# EXPERIMENTAL_SETUP: agonist activity, 1 hour at room temperature
The entries below are paired with their reported pEC50.
# log scale: pEC50 equals minus log10 of the concentration in mol/L

Some solved cases for reference:
[[record]]
compound = "Cc1ccc(-c2nc3c(nc2-c2ccc(C)nc2)N(CCCCCCC(=O)O)CCC3)cc1 [Example 7]"
quantitative_readout = 9.70

[[record]]
compound = "Cc1ccc(-c2nc3c(nc2-c2ccc(C)cc2)N(CCCCCC(=O)NO)CCC3)cc1 [Example 12.10]"
quantitative_readout = 7.25

[[record]]
compound = "CO[C@@H]1CCN(CCCCCCC(=O)O)c2nc(-c3ccc(C)cc3)c(-c3ccc(C)cc3)nc21 (single isomer, unassigned) [Example 3.3]"
quantitative_readout = 8.64


Dear colleague, please send me the reported pEC50 for Cc1ccc(-c2nc3c(nc2-c2ccc(C)cc2)N(CCCCCCC(=O)NS(=O)(=O)C(C)C)CCC3)cc1 [Example 13.5] when you can.
8.30

Identify measured pEC50 associated with Cc1ccc(-c2nc3c(nc2-c2ccc(C)cc2)N(CCCCCCC(=O)NS(=O)(=O)c2ccccc2)CCC3)cc1 [Example 12.2]
8.19

Supply pEC50 value. Item: Cc1ccc(-c2nc3c(nc2-c2ccc(C)cc2)N(CCCCCCC(=O)O)C(=O)C(C(C)(C)O)C3)cc1 (single isomer, unassigned) [1.1(i)]
9.52

Please report the measured pEC50 for CONC(=O)CCCCCCN1CCCc2nc(-c3ccc(C)cc3)c(-c3ccc(C)cc3)nc21 [Example 12.6]
8.33
